- TGT: uroporphyrinogen decarboxylase (UROD) (Homo sapiens, UniProt P06132)
- Construct: recombinant UROD (GenBank BC001778) with 5'-histidine tag and thrombin cleavage site
- Sequence (P06132 whole entry): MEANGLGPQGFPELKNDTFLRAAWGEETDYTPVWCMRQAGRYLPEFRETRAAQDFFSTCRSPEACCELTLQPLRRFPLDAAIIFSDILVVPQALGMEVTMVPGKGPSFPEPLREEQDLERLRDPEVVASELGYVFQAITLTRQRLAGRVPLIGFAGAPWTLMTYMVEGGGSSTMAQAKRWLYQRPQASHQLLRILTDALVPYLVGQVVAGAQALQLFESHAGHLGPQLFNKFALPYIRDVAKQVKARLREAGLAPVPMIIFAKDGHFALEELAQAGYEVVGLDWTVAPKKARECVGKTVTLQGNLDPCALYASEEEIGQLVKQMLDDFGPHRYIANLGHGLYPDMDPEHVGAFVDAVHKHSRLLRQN
- ASSAY REMARKS: Recombinant UROD enzyme assay with RP-HPLC fluorescence detection of uroporphyrin/coproporphyrin ([…] UROD, […] uroporphyrinogen)
RESULT TYPE: pIC50
Scale: pIC50 equals -log10([C]), with [C] in mol/L.

Incoming: What value of pIC50 has been recorded for this entry: CC1=C(CCC(=O)O)C2=Cc3[nH]c(c(C)c3CCC(=O)O)C(C)(C)C3=NC(=Cc4[nH]c(c(C)c4CCC(=O)O)C(C)(C)C1=N2)C(CCC(=O)O)=C3C
Outgoing: 5.00

Taken from paper PMC3934957.
